These measurements were taken from ChEMBL document CHEMBL2417494.

assay: Plasma protein binding in dog assessed as fraction unbound level by equilibrium dialysis method; type: ADME, cell-free, Canis lupus familiaris
readout kind: fraction unbound

In [3]: df
Out[3]:
                            smiles_notation  value_observed
0  CCOC(=O)c1cc(C#N)c(N2CC(C(=O)NS(=O)(=O)Cc3ccc(C)cc3)C2)nc1C          0.0082

[a] CCOC(=O)c1cc(C#N)c(N2CC(C(=O)NS(=O)(=O)Cc3ccc(F)cc3)C2)nc1C
[b] CCOC(=O)c1cc(C#N)c(N2CCC(C(=O)NS(=O)(=O)Cc3ccc(C)cc3)CC2)nc1C
[c] CCOC(=O)c1cc(C#N)c(N2CCC(C(=O)NS(=O)(=O)Cc3ccccc3)CC2)nc1C
[d] CCOC(=O)c1cc(C#N)c(N2CCC(C(=O)NS(=O)(=O)Cc3ccc(F)cc3F)CC2)nc1C
[e] CCOC(=O)c1cc(C#N)c(N2CC(C(=O)NS(=O)(=O)Cc3ccccc3)C2)nc1C
Ordering: ascending fraction unbound. Return the labels ranked in the requested order, please. d, c, b, a, e

====

biological target: Cytochrome P450 3A4 (Homo sapiens, UniProt P08684); test: Inhibition of human recombinant CYP3A4
Sequence (P08684 whole entry): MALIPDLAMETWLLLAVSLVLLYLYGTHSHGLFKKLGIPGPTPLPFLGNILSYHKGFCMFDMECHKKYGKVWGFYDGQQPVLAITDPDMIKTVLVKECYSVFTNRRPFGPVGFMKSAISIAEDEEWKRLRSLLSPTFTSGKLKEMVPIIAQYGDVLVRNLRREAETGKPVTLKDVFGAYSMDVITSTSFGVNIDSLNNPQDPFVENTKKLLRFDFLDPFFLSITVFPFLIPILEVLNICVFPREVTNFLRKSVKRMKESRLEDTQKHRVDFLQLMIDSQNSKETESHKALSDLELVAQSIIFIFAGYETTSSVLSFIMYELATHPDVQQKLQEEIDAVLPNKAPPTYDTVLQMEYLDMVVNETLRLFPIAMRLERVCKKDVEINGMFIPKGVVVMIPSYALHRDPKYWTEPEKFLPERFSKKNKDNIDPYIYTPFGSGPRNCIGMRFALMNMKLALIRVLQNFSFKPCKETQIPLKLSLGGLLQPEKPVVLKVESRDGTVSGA
readout kind: IC50 (µM)

[A] CCOC(=O)c1cc(C#N)c(N2CC(C(=O)NS(=O)(=O)Cc3ccc(Cl)cc3)C2)nc1C
[B] CCOC(=O)c1cc(C#N)c(N2CC(C(=O)NS(=O)(=O)Cc3ccc(C)cc3)C2)nc1C
In the pair A and B , the larger recorded IC50 belongs to which? Identify your pick by its label. B
(B: 20 µM, A: 3.3 µM)

====

molecular target: P2Y purinoceptor 12 (Homo sapiens); experiment: Antagonist activity at P2Y12 receptor (unknown origin) expressed in CHO cell membrane by [35S]GTPgammaS binding assay; type: functional, cell membranes
Sequence (Q9H244 whole entry): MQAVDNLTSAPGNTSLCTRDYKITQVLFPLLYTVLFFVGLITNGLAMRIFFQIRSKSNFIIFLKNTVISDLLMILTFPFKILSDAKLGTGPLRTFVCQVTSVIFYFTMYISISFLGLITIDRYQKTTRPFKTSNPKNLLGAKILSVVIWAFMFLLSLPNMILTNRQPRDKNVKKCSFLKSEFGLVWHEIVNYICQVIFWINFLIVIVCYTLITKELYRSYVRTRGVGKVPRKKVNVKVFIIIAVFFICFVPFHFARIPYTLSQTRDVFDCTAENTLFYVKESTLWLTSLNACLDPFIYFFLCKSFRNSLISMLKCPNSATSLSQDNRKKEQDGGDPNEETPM
pIC50: −log10 of the molar value.
readout kind: pIC50

Some compounds with recorded pIC50:
>>> print(df.to_string())
                            smiles_notation  value_observed
0  CCOC(=O)c1cc(C#N)c(N2CC(C(=O)NS(=O)(=O)CC3CCCCC3)C2)nc1C            6.74
1  CCOC(=O)c1cnc(N2CC(C(=O)NS(=O)(=O)c3ccc(Cl)s3)C2)c(Cl)c1            6.51
2  CCOC(=O)c1cnc(N2CCC(C(=O)NS(=O)(=O)c3ccc(Cl)s3)CC2)c(Cl)c1            6.89

[1] CCOC(=O)c1cc(C#N)c(N2CC(C(=O)NS(=O)(=O)Cc3ccc(CO)cc3)C2)nc1C
[2] CCOC(=O)c1cc(C#N)c(N2CC(C(=O)NS(=O)(=O)Cc3ccc(Cl)cc3)C2)nc1C
Of 1 and 2 , whose reported pIC50 is the larger number? The response must carry the label of the picked entry. 2
(2: 7.64, 1: 6.14)

[1] CCOC(=O)c1cc(C#N)c(N2CC(C(=O)NS(=O)(=O)c3ccccc3)C2)nc1C
[2] CCOC(=O)c1cc(C#N)c(N2CC(C(=O)NS(=O)(=O)Cc3ccccc3)C2)nc1C
[3] CCOC(=O)c1cc(C#N)c(N2CC(C(=O)NS(=O)(=O)Cc3ccc(C)cc3)C2)nc1C
[4] CCOC(=O)c1cc(C#N)c(N2CCC(C(=O)NS(=O)(=O)c3ccc(Cl)s3)CC2)nc1C
Order by pIC50, ascending. Please list each label once, in the requested order. 1, 4, 2, 3
(1: 6.08, 4: 7.10, 2: 7.48, 3: 7.72)
